# condition.info: rat, in vivo
metric: MRT(0→t)
Provide a numeric answer; units are not to be included.

// worked examples, MRT(0→t) included
compound: Cc1cc(O)c2c(c1)C(=O)c1cc(C(=O)O)cc(O)c1C2=O
result.number: 5.64
//
compound: CC(CO)C1=C(O)c2ccc3c(c2C(=O)C1=O)CCCC3(C)C (stereo not drawn)
result.number: 5.85
//
compound: Cc1cc(O[C@@H]2O[C@H](CO)[C@@H](O)[C@H](O)[C@H]2O)cc2oc(CC(C)O)cc(=O)c12 (stereo partly drawn)
result.number: 6.76

Req: For the compound COc1cccc2c1C(=O)c1c(O)cc(C)cc1C2=O , give its reported MRT(0→t).
Resp: 4.30

Req: For the compound COc1cc2c(=O)c(-c3ccc(O)cc3)coc2cc1O[C@@H]1O[C@H](CO)[C@@H](O)[C@H](O)[C@H]1O , give its reported MRT(0→t).
Resp: 4.70

Req: For the compound COc1ccc2c(c1OC)O[C@H]1c3ccc(O)cc3OC[C@@H]21 , give its reported MRT(0→t).
Resp: 6.10
